Assay: in vitro; also: test concentration or dose not given here
Details: % Viability non-Wnt responsive cells
Where a SMILES comes first, the peptide text is derived from it.
Can you tell me viability for the items I'm about to list?
Answers are plain numbers, in %.

compound | unit-text | viability
CC[C@H](C)[C@H](NC(=O)[C@H](CC(C)C)NC(=O)[C@H](Cc1ccccc1)NC(=O)[C@H](Cc1c[nH]c2ccccc12)NC(=O)[C@H](CCSC)NC(=O)[C@H](CCCNC(=N)N)NC(=O)[C@H](CO)NC(=O)[C@@H](N)CCSC)C(=O)N[C@@H](CO)C(=O)N[C@@H](Cc1ccccc1)C(=O)N[C@@H](Cc1c[nH]c2ccccc12)C(=O)N[C@@H](CCSC)C(=O)NCC(=O)O [compound 14] (H-MSRMWFLISFWMG-OH) | % | 98
CC[C@H](C)[C@H](NC(=O)[C@H](CC(C)C)NC(=O)[C@H](Cc1ccccc1)NC(=O)[C@H](Cc1c[nH]c2ccccc12)NC(=O)[C@H](CCSC)NC(=O)[C@H](CCCNC(=N)N)NC(=O)[C@H](CO)NC(=O)[C@@H](N)CCSC)C(=O)N[C@@H](CO)C(=O)N[C@@H](Cc1ccccc1)C(=O)N[C@@H](Cc1c[nH]c2ccccc12)C(=O)N(C)[C@@H](C)C(=O)NCC(=O)O [compound 16] (HELM PEPTIDE1{M.S.R.M.W.F.L.I.S.F.W.[meA].G}$$$$V2.0) | % | 92

Please examine the following record next.
Query :: Dear colleague, I am looking for the recorded viability of the following compound: CC[C@H](C)[C@@H]1NC(=O)[C@H](CC(C)C)NC(=O)[C@H](Cc2ccccc2)NC(=O)[C@H](Cc2c[nH]c3ccccc23)NC(=O)[C@H](CCSC)NC(=O)[C@@H](N)CCCCNC(=O)CNC(=O)[C@H](Cc2c[nH]c3ccccc23)NC(=O)[C@H](Cc2ccccc2)NC(=O)[C@H](CO)NC1=O [compound 26] (HELM PEPTIDE1{K.M.W.F.L.I.S.F.W.G}$PEPTIDE1,PEPTIDE1,1:R3-10:R2$$$V2.0; bridges inferred)
Result :: 88
